Data credit: paper PMC10397247

TARGET_ENTITY: T1, 4H678-AA
T1 chain: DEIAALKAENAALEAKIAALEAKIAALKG
METHOD_DESCRIPTION: two-hybrid library CCmax;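 also: natural log of median RNA to DNA barcode read ratio; higher means stronger binding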
MEASUREMENT_CONTEXT: mean of both orientations
The reader will find reported interaction score values listed item by item below.

{"BINDER": "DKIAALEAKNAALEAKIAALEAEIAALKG [4H2466-AA]", "interaction score": -0.158}
{"BINDER": "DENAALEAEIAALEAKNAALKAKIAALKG [4H1086-AA]", "interaction score": -0.364}
{"BINDER": "DEIAALEAKNAALEAKIAALKAKIAALEG [4H429-AA]", "interaction score": 1.26}
{"BINDER": "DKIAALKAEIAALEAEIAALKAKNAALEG [4H2575-AA]", "interaction score": -0.968}
{"BINDER": "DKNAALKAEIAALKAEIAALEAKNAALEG [4H3655-AA]", "interaction score": -0.956}
{"BINDER": "DEIAALKAEIAALEAKNAALEAKIAALKG [4H566-AA]", "interaction score": -0.948}
{"BINDER": "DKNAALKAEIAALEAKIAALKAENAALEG [4H3627-AA]", "interaction score": -1.31}
